# Procedure summary: chemical genetic growth profiling, strain panel (AID 1159580);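 note: tested at 20 µM; growth read once vehicle control cultures reached saturation at 30 °C; 1 = growth at the plate median or of vehicle wells; lower values mean less growth of the strain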
# Applied conditions: S. cerevisiae deletion strains, growth OD, locus YDR392W, strain spt3, hits give low values
Hit rate of the full screen: of about 5,500 compounds, about 2,000 (36%) were called active. Roughly 18% stayed inconclusive and do not appear here. Some of the results follow.
Rule: measured normalized growth below 0.9 gets y; anything equal to or greater than 0.9 gets n.

{"Molecule": "O=C(O)CC(O)(CC(=O)O)C(=O)O", "Assigned label": "n"}
{"Molecule": "CCCCCCCCCCCC[C@H](C(=O)O)[C@@H](C)C(=O)O", "Assigned label": "y"}
{"Molecule": "C/C=C1\\[C@H]2C=C(C)C[C@]1(N)c1ccc(=O)[nH]c1C2", "Assigned label": "n"}
{"Molecule": "C#C[C@]1(O)CCC2C3CCC4=CC(=O)CC[C@@H]4C3CC[C@@]21CC (stereo partly specified)", "Assigned label": "y"}
{"Molecule": "CC(=O)/C=C\\[C@@H]1[C@@]2(C)CCCC(C)(C)C2CC[C@@]1(C)O (stereo partly specified)", "Assigned label": "y"}
{"Molecule": "CCCCCCCCCCCCCCC(C(=O)O)C(O)(CC(=O)OC)C(=O)O (stereo unspecified)", "Assigned label": "y"}

* * *

# Procedure summary: chemical genetic growth profiling, strain panel (AID 1159580);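 note: tested at 20 µM; growth read once vehicle control cultures reached saturation at 30 °C; 1 = growth at the plate median or of vehicle wells; lower values mean less growth of the strain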
# Applied conditions: S. cerevisiae deletion strains, growth OD, locus YDR388W
Among all 5,500 compounds or so, about 2,000 (36%) were called active. Not shown: some 18% with an inconclusive outcome. Cut-off read from the data, not from the text of the source: active = normalized growth mostly below about 0.91 (no sharp cut-off); inconclusive = no clear call, values can overlap the other calls; inactive = mostly above about 0.92. The list shows a part of the results.
Outcome codes: class 1 (active), class 0 (inactive)

{"Molecule": "C/C=C(/C)C(=O)O[C@H]1CC[C@@]2(C)[C@@H]3CC[C@H]4[C@]5(O)C[C@H](O)[C@@]6(O)[C@@H](CN7C[C@@H](C)CC[C@H]7[C@@]6(C)O)[C@]5(O)C[C@@]42O[C@]13O", "Assigned label": "class 0"}
{"Molecule": "CCOP(=S)(OCC)Oc1cc(C)nc(C(C)C)n1", "Assigned label": "class 0"}
{"Molecule": "C#C[C@]1(O)CCC2C3CCC4=CC(=O)CC[C@@H]4C3CC[C@@]21C (stereo partly specified)", "Assigned label": "class 0"}
{"Molecule": "Clc1ccccc1C(c1ccccc1)(c1ccccc1)n1ccnc1", "Assigned label": "class 1"}
{"Molecule": "C[C@]12CCC(=O)C=C1CCC1C2[C@@H](O)C[C@@]2(C)C1CC[C@]2(O)C(=O)CO (stereo partly specified)", "Assigned label": "class 0"}
{"Molecule": "C#C[C@]1(O)CCC2C3CCC4=C(CCC(=O)C4)C3CC[C@@]21C (stereo partly specified)", "Assigned label": "class 0"}
{"Molecule": "Nc1ccc(S(=O)(=O)Nc2ccnn2-c2ccccc2)cc1", "Assigned label": "class 0"}
{"Molecule": "Cc1cc(O)c2c(c1)Cc1cccc(O)c1C2=O", "Assigned label": "class 0"}
{"Molecule": "CNCc1ccccc1", "Assigned label": "class 0"}
{"Molecule": "O=C1c2c(O)cccc2Cc2cccc(O)c21", "Assigned label": "class 0"}
{"Molecule": "C/C=C(/C)C(=O)OC1CCC2(C)C3CCC4C5(O)CC(O)C6(O)C(CN7CC(C)CCC7C6(C)O)C5(O)CC42OC13O (stereo unspecified)", "Assigned label": "class 0"}

* * *

# Procedure summary: chemical genetic growth profiling, strain panel (AID 1159580);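 note: tested at 20 µM; growth read once vehicle control cultures reached saturation at 30 °C; 1 = growth at the plate median or of vehicle wells; lower values mean less growth of the strain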
# Applied conditions: S. cerevisiae deletion strains, growth OD, locus YFL009W, strain cdc4
In all, about 5,500 compounds went through this assay and about 2,000 (36%) were called active. Not shown: some 18% with an inconclusive outcome. Rule as the data show it: active = normalized growth mostly below about 0.91 (no sharp cut-off); inconclusive = no clear call, values can overlap the other calls; inactive = mostly above about 0.92. The list shows a part of the results.
Outcome codes: active, inactive

{"Compound": "COC(=O)c1cnn(-c2c(Cl)cccc2Cl)c1C=C(C#N)C#N", "Assigned label": "inactive"}
{"Compound": "Cc1nc(-c2ccccn2)nc(SCc2ccccc2)c1Cl", "Assigned label": "inactive"}
{"Compound": "Fc1cccc(Cl)c1CSc1n[nH]c(-c2cc(C(F)(F)F)cc(C(F)(F)F)c2)n1", "Assigned label": "inactive"}
{"Compound": "O=[N+]([O-])c1cnc(Sc2nnc(SCc3cccc(C(F)(F)F)c3)s2)s1", "Assigned label": "active"}
{"Compound": "CCCc1nc(-c2ccccn2)[nH]c(=O)c1CC1CC1", "Assigned label": "inactive"}
{"Compound": "O=C(NCC(c1ccccc1)c1c[nH]c2ccccc12)c1ccc(C(F)(F)F)cc1 (stereo not drawn)", "Assigned label": "inactive"}
{"Compound": "O=C(NCC1COc2ccccc2O1)c1ccc(Cl)cc1 (stereo not drawn)", "Assigned label": "inactive"}
{"Compound": "Cc1csc(NC(=O)Nc2ccc(C(F)(F)F)cc2)c1Cl", "Assigned label": "inactive"}
{"Compound": "Clc1cc(Cl)cc(-c2nc(SCc3ccc(Cl)cc3Cl)n[nH]2)c1", "Assigned label": "inactive"}
{"Compound": "Cc1ccc(C)c(CSc2nc(C3CCCCC3)c(C#N)c(=O)[nH]2)c1", "Assigned label": "inactive"}
{"Compound": "O=C(NCCNc1ncc(C(F)(F)F)cc1Cl)C(F)(F)Sc1ccccc1", "Assigned label": "inactive"}
{"Compound": "CC(C)Cc1ccc(C(C)C(=O)Nc2nn(C)c3ccccc23)cc1 (stereo not drawn)", "Assigned label": "inactive"}
{"Compound": "Cc1nc(-c2ccccn2)nc(N(C)Cc2ccccc2)c1Cl", "Assigned label": "inactive"}
{"Compound": "Cc1oc(C(C)(C)C)cc1-c1cc(N)n(-c2ccc(I)cc2)n1", "Assigned label": "inactive"}
{"Compound": "O=C(NCCc1ccncc1)c1ccc(Cl)c(Cl)c1", "Assigned label": "inactive"}
{"Compound": "Clc1ccc2c(c1)c1ccccc1n2CN1CCOCC1", "Assigned label": "inactive"}
{"Compound": "O=S(=O)(c1ccc(Cl)cc1)N(Cc1cccnc1)Cc1ccc(Cl)cc1Cl", "Assigned label": "inactive"}
{"Compound": "Cc1ccc(S(=O)(=O)n2c(Sc3ccc([N+](=O)[O-])cc3[N+](=O)[O-])nc3cc(C)ccc32)cc1", "Assigned label": "inactive"}
{"Compound": "O=C(CSCc1csc2ccccc12)Nc1ccc(F)c(Cl)c1", "Assigned label": "inactive"}
{"Compound": "O=C(NCCNc1ncc(Cl)cc1C(F)(F)F)C(F)(F)Sc1ccccc1", "Assigned label": "inactive"}
{"Compound": "Fc1ccc(NC(=S)N2CCCN(Cc3ccc(Cl)cc3Cl)CC2)cc1", "Assigned label": "inactive"}
{"Compound": "Cc1csc(NC(=O)Nc2ccc(C(F)(F)F)cc2)c1", "Assigned label": "inactive"}
{"Compound": "C=CCc1c(CCC)nc(-c2ccccn2)[nH]c1=O", "Assigned label": "inactive"}
{"Compound": "Brc1ccc2[nH]c3c(c2c1)CCC3", "Assigned label": "inactive"}
{"Compound": "CCOC(=O)c1cc(CC)sc1NC(=O)c1ccc([N+](=O)[O-])o1", "Assigned label": "inactive"}
{"Compound": "CSc1n[nH]c(-c2cc(C(F)(F)F)cc(C(F)(F)F)c2)n1", "Assigned label": "inactive"}
{"Compound": "O=[N+]([O-])c1ccc(S(=O)(=O)c2ccccc2)nc1S(=O)(=O)c1ccccc1", "Assigned label": "inactive"}
{"Compound": "O=C(c1ccc(Cl)cc1)N(Cc1ccccc1)Cc1cccnc1", "Assigned label": "inactive"}

* * *

# Procedure summary: chemical genetic growth profiling, strain panel (AID 1159580);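 note: tested at 20 µM; growth read once vehicle control cultures reached saturation at 30 °C; 1 = growth at the plate median or of vehicle wells; lower values mean less growth of the strain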
# Applied conditions: S. cerevisiae deletion strains, growth OD, locus YGR252W, strain gcn5, hits give low values
Screen size: about 5,500 compounds; about 2,000 (36%) were called active. Another 18% or so got no clear call; they are omitted. This is one part of the list.
# Lookup of reported normalized growth keyed by entry
Property: normalized growth

{"Compound": "CCC(C)C(NC)C(=O)O (stereo unspecified)", "Property": "normalized growth", "Number": 0.986}
{"Compound": "C/C=C(/C)C(=O)O[C@H]1CC[C@@]2(C)[C@@H]3CC[C@H]4[C@]5(O)C[C@H](O)[C@@]6(O)[C@@H](CN7C[C@@H](C)CC[C@H]7[C@@]6(C)O)[C@]5(O)C[C@@]42O[C@]13O", "Property": "normalized growth", "Number": 1.11}
{"Compound": "NC(Cc1c[nH]c2ccccc12)C(=O)O (stereo unspecified)", "Property": "normalized growth", "Number": 0.981}
{"Compound": "NCCC(=O)N[C@@H](Cc1cnc[nH]1)C(=O)O", "Property": "normalized growth", "Number": 1.05}
{"Compound": "C#C[C@]1(OC(C)=O)CCC2C3CCC4=CC(=O)CC[C@@H]4C3CC[C@@]21C (stereo partly specified)", "Property": "normalized growth", "Number": 1.07}
{"Compound": "CC(C)(C#N)O[C@@H]1O[C@H](CO)[C@@H](O)[C@H](O)[C@H]1O", "Property": "normalized growth", "Number": 0.979}
{"Compound": "CC1C(=O)OC2C1CCC1(C)C=CC(=O)C3(C)OC213 (stereo unspecified)", "Property": "normalized growth", "Number": 1.01}
{"Compound": "CCOC(=O)OC(C)OC(=O)C1N2C(=O)C(NC(=O)[C@H](N)c3ccccc3)C2SC1(C)C (stereo partly specified)", "Property": "normalized growth", "Number": 0.945}
{"Compound": "Cc1ccnc(NS(=O)(=O)c2ccc(N)cc2)n1", "Property": "normalized growth", "Number": 0.984}
{"Compound": "OC(CCN1CCCC1)(c1ccccc1)C1CCCCC1 (stereo unspecified)", "Property": "normalized growth", "Number": 1.01}
{"Compound": "Clc1ccccc1C(c1ccccc1)(c1ccccc1)n1ccnc1", "Property": "normalized growth", "Number": 0.165}
{"Compound": "CCC(C)C(=O)O[C@H]1[C@H](O)C2C(CN3CC(C)CCC3[C@@]2(C)O)C2C[C@]34O[C@]5(O)C(OC(=O)C(C)(O)CC)CC[C@@]3(C)C5C(OC(C)=O)[C@@H](OC(C)=O)C4[C@@]21O (stereo partly specified)", "Property": "normalized growth", "Number": 0.965}
{"Compound": "O=c1oc2cc(O)ccc2s1", "Property": "normalized growth", "Number": 0.956}
{"Compound": "O=c1[nH]cc(F)c(=O)[nH]1", "Property": "normalized growth", "Number": 0.757}
{"Compound": "CC(=O)/C=C\\[C@@H]1[C@@]2(C)CCCC(C)(C)C2CC[C@@]1(C)O (stereo partly specified)", "Property": "normalized growth", "Number": 1.05}
{"Compound": "C[C@@H]1CC[C@H]2[C@@H](C)C(=O)O[C@@H]3O[C@@]4(C)CC[C@@H]1[C@]32OO4", "Property": "normalized growth", "Number": 0.854}
{"Compound": "O=c1cc(CO)occ1O", "Property": "normalized growth", "Number": 1.05}
{"Compound": "CO[C@@]12[C@@H]3NC3CN1C1=C(C(=O)C(N)=C(C)C1=O)[C@@H]2COC(N)=O (stereo partly specified)", "Property": "normalized growth", "Number": 0.943}
{"Compound": "COc1cc(N)c(Cl)cc1C(=O)NC1CCN(Cc2ccccc2)CC1", "Property": "normalized growth", "Number": 1.15}
{"Compound": "CC(=O)OC1CC[C@@]2(C)C(CC[C@]3(C)C2CCC2C4CC(C)(C)CCC4(C(=O)O)CC[C@]23C)C1(C)C (stereo partly specified)", "Property": "normalized growth", "Number": 1.05}
{"Compound": "OC(CCN1CCCCC1)(c1ccccc1)C1CCCCC1 (stereo unspecified)", "Property": "normalized growth", "Number": 0.975}
